// provenance: patent US7015325B2

Molecular target: human tryptase
Experiment: Inhibition of human tryptase (apparent dissociation constant, chromogenic substrate tos-Gly-Pro-arg-pNA)
Settings: apparent dissociation constant in presence of substrate; heparin 0.1–50 μg/ml; equilibrium conditions; read-out: Kiapp
Counter-ions that a name gives are not always drawn.
So I've got a bunch of molecules here, and I need their pKi values.
// field semantics: pKi = negative decimal log of concentration (mol/L)

## Input May I ask what pKi has been recorded for NCc1ccc(CNC(=O)N2CCN(C(=O)OCCOCC#CCOCCOC(=O)N3CCN(C(=O)NCc4ccc(CN)cc4)CC3)CC2)cc1 [Compound 2, dihydrochloride] ?
## Output 9.46

## Input Moving on to NCc1ccc(CNC(=O)N2CCN(C(=O)OCCCCC#CC#CCCCCOC(=O)N3CCN(C(=O)NCc4ccc(CN)cc4)CC3)CC2)cc1 [Compound 5, dihydrochloride]
## Output 7.92

## Input Same thing, different molecule: NC[C@H]1CC[C@H](C(=O)N2CCN(C(=O)OCCOCC#CCOCCOC(=O)N3CCN(C(=O)[C@H]4CC[C@H](CN)CC4)CC3)CC2)CC1 [Compound 1, dihydrochloride]
## Output 7.07

## Input One more molecule: NCc1cccc(CNC(=O)N2CCN(C(=O)OCC#CC#CCOC(=O)N3CCN(C(=O)NCc4cccc(CN)c4)CC3)CC2)c1 [Compound 7, dihydrochloride]
## Output 8.10
